System: GST-Bcl-2
Assay: TR-FRET binding assay, Bcl-2
Settings: TR-FRET Ki values
Measured Binding selectivity ratio (Bcl-XL Ki/Bcl-2 Ki), listed per entry for reference.
MEASURED_ATTRIBUTE: Binding selectivity ratio (Bcl-XL Ki/Bcl-2 Ki)

>  <COMPOUND>
CC1(C)CCC(CN2CCN(c3ccc(C(=O)NS(=O)(=O)c4cnc(NCC5CCOCC5)c(Br)c4)c(Oc4ccc5[nH]ccc5c4)c3)CC2)=C(c2ccc(Cl)cc2)C1 [EXAMPLE 350]

>  <RESULT>
>110.6

$$$$
>  <COMPOUND>
COc1ccc(Nc2ccc(S(=O)(=O)NC(=O)c3ccc(N4CCN(CC5=C(c6ccc(Cl)cc6)CC(C)(C)CC5)CC4)cc3Oc3ccc4[nH]ccc4c3)cc2[N+](=O)[O-])cc1O [EXAMPLE 394]

>  <RESULT>
>263262.863980854

$$$$
>  <COMPOUND>
CC1(C)CCC(CN2CCN(c3ccc(C(=O)NS(=O)(=O)c4ccc(Nc5ccc(O)cc5)c([N+](=O)[O-])c4)c(Oc4ccc5[nH]ccc5c4)c3)CC2)=C(c2ccc(Cl)cc2)C1 [EXAMPLE 375]

>  <RESULT>
>58.6

$$$$
